Listing: koff of selected binders
assayedSystem: T1, ActRIIA-Fc homodimer (UniProt P27037 20-135)
T1 construct: extracellular domain
T1 sequence (P27037 20-135): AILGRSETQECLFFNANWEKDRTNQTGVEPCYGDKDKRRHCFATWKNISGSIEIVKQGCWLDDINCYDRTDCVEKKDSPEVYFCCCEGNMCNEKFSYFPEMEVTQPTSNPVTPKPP
procedureDetails: Biacore SPR

Reference set (3 entries):
binder	koff
GDF3 (ligand, UniProt Q9NR23 251-364, looked up) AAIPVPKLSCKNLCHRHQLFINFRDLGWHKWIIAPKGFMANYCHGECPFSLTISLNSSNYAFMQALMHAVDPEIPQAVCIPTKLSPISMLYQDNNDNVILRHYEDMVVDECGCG	0.0036 s⁻¹
activin B (ligand, UniProt P09529 293-407, looked up) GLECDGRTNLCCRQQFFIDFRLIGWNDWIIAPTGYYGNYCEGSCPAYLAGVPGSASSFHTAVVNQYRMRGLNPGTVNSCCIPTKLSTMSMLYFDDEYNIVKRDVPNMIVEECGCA	0.00011 s⁻¹
BMP10 (ligand, UniProt O95393 317-424, looked up) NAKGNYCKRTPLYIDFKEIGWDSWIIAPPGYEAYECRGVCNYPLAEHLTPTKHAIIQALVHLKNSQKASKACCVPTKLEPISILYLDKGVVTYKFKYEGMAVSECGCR	0.0025 s⁻¹

Below: the item to evaluate.
Req: Sample GDF11 (ligand, UniProt O95390 299-407, looked up, also called BMP11) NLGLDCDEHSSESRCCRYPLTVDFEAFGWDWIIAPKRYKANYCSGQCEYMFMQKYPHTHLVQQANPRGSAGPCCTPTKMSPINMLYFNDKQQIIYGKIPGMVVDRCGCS — what was its koff?
Resp: 0.00092 s⁻¹
